target: Carbonic anhydrase 2 (Homo sapiens, UniProt P00918); assay: Inhibition of recombinant human carbonic anhydrase 2 incubated for 15 mins prior to testing by phenol red based stopped-flow CO2 hydration assay
Task for the reader: assign each of the following compounds its reported Ki.
The figure you give is taken to be in nM; do not add the unit.

Field Ki (entry NS(=O)(=O)c1ccc(NC(=O)Nc2nc(-c3ccccc3)n(-c3ccc(F)cc3)n2)cc1 ) reads 25.2

Lab note: measured Ki of NS(=O)(=O)c1ccc(CCNC(=O)Nc2nc(-c3ccccc3)n(-c3cccc(Cl)c3)n2)cc1 was 20.1

Ki reported for this compound NS(=O)(=O)c1ccccc1NC(=O)Nc1nc(-c2ccccc2)n(-c2ccc(Cl)cc2)n1 : 241

In plain terms, COc1ccc(-n2nc(NC(=O)Nc3ccc(S(N)(=O)=O)cc3)nc2-c2ccccc2)cc1 has a documented Ki of 29.4

Looking up COc1cccc(-n2nc(NC(=O)Nc3cccc(S(N)(=O)=O)c3)nc2-c2ccccc2)c1 , I found its Ki recorded as 91.5

###

biological target: UniProtKB P00915; assay: Inhibition of recombinant human carbonic anhydrase 1 incubated for 15 mins prior to testing by phenol red based stopped-flow CO2 hydration assay
Sequence (P00915 whole entry): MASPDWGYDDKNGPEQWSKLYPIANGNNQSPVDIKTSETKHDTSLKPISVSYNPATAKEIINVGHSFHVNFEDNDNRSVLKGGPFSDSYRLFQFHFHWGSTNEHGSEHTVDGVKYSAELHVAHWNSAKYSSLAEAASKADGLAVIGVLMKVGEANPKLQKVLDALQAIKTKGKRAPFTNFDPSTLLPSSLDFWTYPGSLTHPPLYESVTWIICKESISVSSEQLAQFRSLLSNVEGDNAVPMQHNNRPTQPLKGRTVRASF
readout: Ki

Form field, Ki with UniProtKB P00915, item NS(=O)(=O)c1ccccc1NC(=O)Nc1nc(-c2ccccc2)n(-c2ccc(F)cc2)n1 : > 10 µM

Form field Ki for item Cc1ccc(NC(=O)Nc2nc(-c3ccccc3)n(-c3cccc(Cl)c3)n2)cc1S(N)(=O)=O on UniProtKB P00915: > 10 µM

The reported UniProtKB P00915 Ki of COc1ccc(-n2nc(NC(=O)Nc3cccc(S(N)(=O)=O)c3)nc2-c2ccccc2)cc1OC is > 10 µM

I looked up COc1ccc(-n2nc(NC(=O)Nc3ccccc3S(N)(=O)=O)nc2-c2ccccc2)cc1 and its Ki for UniProtKB P00915 was > 10 µM

# Ki measured on UniProtKB P00915 for item NS(=O)(=O)c1cccc(NC(=O)Nc2nc(-c3ccccc3)n(-c3ccc(F)cc3)n2)c1 = 4.9 µM

Lab note: compound COc1ccc(-n2nc(NC(=O)Nc3cccc(S(N)(=O)=O)c3)nc2-c2ccccc2)cc1 tested on UniProtKB P00915; recorded Ki was 4.19 µM

Item Cc1ccc(NC(=O)Nc2nc(-c3ccccc3)n(-c3ccc(F)cc3)n2)cc1S(N)(=O)=O was tested on UniProtKB P00915; the reported Ki is > 10 µM

Ki on UniProtKB P00915 for COc1ccc(-n2nc(NC(=O)Nc3ccccc3S(N)(=O)=O)nc2-c2ccccc2)cc1OC is > 10 µM

// compound COc1cccc(-n2nc(NC(=O)Nc3ccccc3S(N)(=O)=O)nc2-c2ccccc2)c1 , assay UniProtKB P00915, Ki value: > 10 µM

NS(=O)(=O)c1ccccc1NC(=O)Nc1nc(-c2ccccc2)n(-c2ccc(Cl)cc2)n1 on UniProtKB P00915 gives Ki = > 10 µM

###

biological target: UniProt:P00915; assay: Inhibition of recombinant human carbonic anhydrase 1 incubated for 15 mins prior to testing by phenol red based stopped-flow CO2 hydration assay
pKi: −log10 of the molar value.
I'd appreciate it if you could supply pKi values for the items below.

// assay UniProt:P00915, entry COc1cccc(-n2nc(NC(=O)Nc3ccc(C)c(S(N)(=O)=O)c3)nc2-c2ccccc2)c1 , pKi value = < 5.00

# lookup: NS(=O)(=O)c1ccccc1NC(=O)Nc1nc(-c2ccccc2)n(-c2cccc(Cl)c2)n1 on UniProt:P00915, pKi = < 5.00

# lookup: Cc1ccc(NC(=O)Nc2nc(-c3ccccc3)n(-c3ccc(Cl)cc3)n2)cc1S(N)(=O)=O on UniProt:P00915, pKi = < 5.00
